// data source = ChEMBL document CHEMBL1127053

Kindly supply the reported pKi values for the records listed here.
// scale note: pKi = -log10(conc_M); give the bare number

State pKi (Kappa-type opioid receptor (Cavia porcellus, UniProt P41144)) of `C[C@H]1CN(CCC(=O)C2CCCCC2)CC[C@@]1(C)c1cccc(O)c1` .
8.41

State pKi (Kappa-type opioid receptor (Cavia porcellus, UniProt P41144)) of `C[C@H]1CN(CC[C@@H](O)C2CCCCC2)CC[C@@]1(C)c1cccc(O)c1` .
7.94

State pKi (Kappa-type opioid receptor (Cavia porcellus, UniProt P41144)) of `C[C@H]1CN(CC2CCCCC2)CC[C@@]1(C)c1cccc(O)c1` .
7.54

State pKi (Kappa-type opioid receptor (Cavia porcellus, UniProt P41144)) of CC(C)CCCCN1CC[C@@](C)(c2cccc(O)c2)[C@@H](C)C1 (stereo in doubt; 21) .
8.23

State pKi (Kappa-type opioid receptor (Cavia porcellus, UniProt P41144)) of `CC(C)CCCCN1CC[C@](C)(c2cccc(O)c2)[C@H](C)C1` .
8.52
